test system: rat red blood cells (RBCs); experiment: Hemolysis; assay type: cell-based; conditions: lowest concentration that induces 10% or more hemolysis; rat RBCs, 1 h, 37° C.; maximum tested 100,000 ppm
# HC10 listing for each entry below

molecule: [Br-].[Br-].[Cl-].[Cl-].[Cl-].[Cl-].c1ccc(Cn2cc[n+](Cc3ccc(Cn4cc[n+](Cc5ccc(Cn6cc[n+](CC7CCCCC7)c6)cc5)c4)cc3)c2)c(Cn2cc[n+](Cc3ccc(Cn4cc[n+](Cc5ccc(Cn6cc[n+](CC7CCCCC7)c6)cc5)c4)cc3)c2)c1
inequality-operator: =
HC10 / ppm: 12500

molecule: CCCCCCCCCCCC[n+]1ccn(Cc2ccc(C[n+]3ccn(Cc4ccc(C[n+]5ccn(Cc6ccccc6Cn6cc[n+](Cc7ccc(Cn8cc[n+](Cc9ccc(Cn%10cc[n+](CCCCCCCCCCCC)c%10)cc9)c8)cc7)c6)c5)cc4)c3)cc2)c1.[Br-].[Br-].[Cl-].[Cl-].[Cl-].[Cl-]
inequality-operator: =
HC10 / ppm: 31

molecule: CCCCCCCCCCCCCC[n+]1ccn(Cc2ccc(C[n+]3ccn(Cc4ccc(C[n+]5ccn(Cc6ccccc6Cn6cc[n+](Cc7ccc(Cn8cc[n+](Cc9ccc(Cn%10cc[n+](CCCCCCCCCCCCCC)c%10)cc9)c8)cc7)c6)c5)cc4)c3)cc2)c1.[Br-].[Br-].[Cl-].[Cl-].[Cl-].[Cl-]
inequality-operator: =
HC10 / ppm: 15

molecule: CCCCCCCCCCCCCCCC[n+]1ccn(Cc2ccc(C[n+]3ccn(Cc4ccc(C[n+]5ccn(Cc6ccccc6Cn6cc[n+](Cc7ccc(Cn8cc[n+](Cc9ccc(Cn%10cc[n+](CCCCCCCCCCCCCCCC)c%10)cc9)c8)cc7)c6)c5)cc4)c3)cc2)c1.[Br-].[Br-].[Cl-].[Cl-].[Cl-].[Cl-]
inequality-operator: =
HC10 / ppm: 15

molecule: CCCCCC[n+]1ccn(Cc2ccc(C[n+]3ccn(Cc4ccc(C[n+]5ccn(Cc6ccccc6Cn6cc[n+](Cc7ccc(Cn8cc[n+](Cc9ccc(Cn%10cc[n+](CCCCCC)c%10)cc9)c8)cc7)c6)c5)cc4)c3)cc2)c1.[Br-].[Br-].[Cl-].[Cl-].[Cl-].[Cl-]
inequality-operator: >
HC10 / ppm: 100000

molecule: CCCCCCCC[n+]1ccn(Cc2ccc(C[n+]3ccn(Cc4ccc(C[n+]5ccn(Cc6ccccc6Cn6cc[n+](Cc7ccc(Cn8cc[n+](Cc9ccc(Cn%10cc[n+](CCCCCCCC)c%10)cc9)c8)cc7)c6)c5)cc4)c3)cc2)c1.[Br-].[Br-].[Cl-].[Cl-].[Cl-].[Cl-]
inequality-operator: =
HC10 / ppm: 12500

molecule: c1ccc(C[n+]2ccn(Cc3ccc(C[n+]4ccn(Cc5ccc(C[n+]6ccn(Cc7ccccc7Cn7cc[n+](Cc8ccc(Cn9cc[n+](Cc%10ccc(Cn%11cc[n+](Cc%12ccccc%12)c%11)cc%10)c9)cc8)c7)c6)cc5)c4)cc3)c2)cc1 [IBN-1, reference compound]
inequality-operator: >
HC10 / ppm: 100000
